Data provenance: ChEMBL document CHEMBL4130630

Target: Sodium- and chloride-dependent GABA transporter 1 (Mus musculus)
Experiment: Inhibition of mouse GAT1 expressed in HEK293 cells assessed as reduction in [3H]GABA uptake preincubated for 25 mins followed by [3H]GABA addition measured after 4 mins by liquid scintillation counting analysis
Format: cell-based
EXPERIMENTAL ENDPOINT: IC50 (µM)

compound="O=C(O)C1CCCN(CCCC#Cc2cccc(/N=N/c3cccc4ccccc34)c2)C1 (stereo not given)" experimental_endpoint=IC50 measured_number=12.3

P = O=C(O)C1CCCN(CCC/C=C/c2ccc(/N=N/c3cccc4ccccc34)cc2)C1 (stereo not given)
Q = O=C(O)C1CCCN(CCCC#Cc2ccc(/N=N/c3cccc4ccccc34)cc2)C1 (stereo not given)
Request: Hi team, can someone confirm which has the larger IC50: P or Q ? Thanks. Reply with the label of the item you choose.
Result: P
(P: 6.46 µM, Q: 3.02 µM)

1 = O=C(O)C1CCCN(CCC#Cc2ccc(/N=N/c3ccccc3)cc2)C1 (stereo not given)
2 = O=C(O)C1CCCN(CCC#Cc2cccc(/N=N/c3cccc4ccccc34)c2)C1 (stereo not given)
3 = O=C(O)[C@@H]1CCCN(CCC#Cc2ccc(/N=N/c3ccccc3)cc2)C1
4 = O=C(O)[C@@H]1CCCN(CCC#Cc2cccc(/N=N/c3ccccc3)c2)C1
5 = O=C(O)C1CCCN(CCC#Cc2cccc(/N=N/c3ccccc3)c2)C1 (stereo not given)
Request: Reorder the items by IC50, least to greatest. Form field (ranking): labels in requested order.
Result: 3, 1, 2, 4, 5

1 = O=C(O)C1CCCN(CCCC#Cc2cccc(/N=N/c3ccccc3)c2)C1 (stereo not given)
2 = O=C(O)C1CCCN(CC/C=C/c2cccc(/N=N/c3ccccc3)c2)C1 (stereo not given)
Request: Hi team, can someone confirm which has the larger IC50: 1 or 2 ? Thanks. Provide the label of your selected option as the answer.
Result: 2

A = O=C(O)C1CCCN(CC/C=C/c2cccc(/N=N/c3cccc4ccccc34)c2)C1 (stereo not given)
B = O=C(O)C1CCCN(CCC#Cc2ccc(/N=N/c3cccc4ccccc34)cc2)C1 (stereo not given)
Request: Dear colleague, could you let me know whether A or B has the lower recorded IC50? Thanks. Refer to your chosen entry by its label in the reply.
Result: B
(B: 0.126 µM, A: 12.3 µM)

a = O=C(O)C1CCCN(CCC/C=C/c2cccc(/N=N/c3cccc4ccccc34)c2)C1 (stereo not given)
b = O=C(O)C1CCCN(CCC/C=C/c2cccc(/N=N/c3ccccc3)c2)C1 (stereo not given)
Request: Hey, which is lower on measured IC50, a or b ? Identify your pick by its label.
Result: a
(a: 19.5 µM, b: 38 µM)

A = O=C(O)C1CCCN(CCCC#Cc2ccc(/N=N/c3ccccc3)cc2)C1 (stereo not given)
B = O=C(O)[C@@H]1CCCN(CCC#Cc2cccc(/N=N/c3cccc4ccccc34)c2)C1
Request: Between the two listed entries A and B , which has its IC50 at the higher number? Refer to your chosen entry by its label in the reply.
Result: A
(A: 7.59 µM, B: 4.27 µM)

1 = O=C(O)C1CCCN(CC/C=C/c2ccc(/N=N/c3ccccc3)cc2)C1 (stereo not given)
2 = O=C(O)[C@@H]1CCCN(CCC#Cc2ccc(/N=N/c3cccc4ccccc34)cc2)C1
Request: Would you let me know which has the greater IC50 value, 1 or 2 ? When you have decided, please share the label of that item.
Result: 1

a = O=C(O)C1CCCN(CC/C=C/c2ccc(/N=N/c3cccc4ccccc34)cc2)C1 (stereo not given)
b = O=C(O)C1CCCN(CCC/C=C/c2ccc(/N=N/c3ccccc3)cc2)C1 (stereo not given)
Request: # min-compare on IC50 between a and b Indicate your choice by writing its label.
Result: b
